Data origin, for the record: patent US5972939A

- System tested: motilin receptors located on the colon of mature rabbits (Oryctolagus cuniculus, UniProt G1T803)
- Construct: The colon from mature New Zealand rabbits was removed, dissected free from the mucosa and serosa layers, and diced into small pieces; from tissue; host or cells: colon smooth muscle of mature New Zealand rabbits, crude membrane homogenate
- Sequence (G1T803 1-400): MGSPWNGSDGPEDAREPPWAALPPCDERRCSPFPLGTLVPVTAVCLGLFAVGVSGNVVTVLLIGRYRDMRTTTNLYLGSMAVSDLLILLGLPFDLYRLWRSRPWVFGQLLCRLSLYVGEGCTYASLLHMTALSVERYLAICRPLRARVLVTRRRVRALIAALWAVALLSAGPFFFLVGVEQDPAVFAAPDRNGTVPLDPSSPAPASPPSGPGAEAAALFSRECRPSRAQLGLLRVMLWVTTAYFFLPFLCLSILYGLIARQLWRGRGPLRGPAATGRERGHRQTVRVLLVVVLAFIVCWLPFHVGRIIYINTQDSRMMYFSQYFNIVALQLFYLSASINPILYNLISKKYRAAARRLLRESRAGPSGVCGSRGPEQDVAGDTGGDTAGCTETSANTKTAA
- Assay notes: competition with radiolabeled (125I) porcine motilin for the motilin receptors of rabbit colon
- Type: binding
- Test conditions: @ 0.1 μM
- Method: The compounds of the invention were tested for their ability to compete with radiolabeled motilin (porcine) for the motilin receptors located on the colon of mature rabbits. […] The pellet was counted in the gamma counter to determine the percentage of […] motilin and thereby the percent inhibition of the test compound. IC50s were determined for some compounds by standard techniques.
Each entry below lists one item and its recorded inhibition at 0.1 µM value.
Reported property: inhibition at 0.1 µM (%)

[[record]]
compound = "O=C(c1ccc(F)c(F)c1)N(CC1=CC(Cc2cccc(Cl)c2)(NC(=O)C(Cl)(Cl)Cl)CC1)c1cccc(OCCN2CCOCC2)c1 (stereo not shown)"
recorded_measurement = 78

[[record]]
compound = "O=C(Nc1ccccc1)N(CC1=CC(NC(=O)C(Cl)(Cl)Cl)(c2ccccc2)CC1)c1cccc(OCCN2CCOCC2)c1 (stereo not shown)"
recorded_measurement = 33

[[record]]
compound = "O=C(c1cc(F)cc(F)c1)N(CC1=CC(Cc2ccccc2)(NC(=O)C(Cl)(Cl)Cl)CC1)c1cccc(OCCN2CCOCC2)c1 (stereo not shown)"
recorded_measurement = 78

[[record]]
compound = "O=C(c1cccc(Br)c1)N(CC1=CC(Cc2ccccc2)(NC(=O)C(Cl)(Cl)Cl)CC1)c1cccc(OCCN2CCOCC2)c1 (stereo not shown)"
recorded_measurement = 54

[[record]]
compound = "O=C(c1ccc(I)cc1)N(CC1=CC(Cc2ccccc2)(NC(=O)C(Cl)(Cl)Cl)CC1)c1cccc(OCCN2CCOCC2)c1 (stereo not shown)"
recorded_measurement = 59

[[record]]
compound = "O=C(c1ccc([N+](=O)[O-])cc1)N(CC1=CC(Cc2ccccc2)(NC(=O)C(Cl)(Cl)Cl)CC1)c1cccc(OCCN2CCOCC2)c1 (stereo not shown)"
recorded_measurement = 69

[[record]]
compound = "O=C(c1ccc(Cl)cc1)N(CC1=CC(Cc2ccccc2)(NC(=O)C(Cl)(Cl)Cl)CC1)c1cccc(OCCN2CCOCC2)c1 (stereo not shown)"
recorded_measurement = 61

